# Tested on: 422866-222-R5-J1-PDC spheroids with HUVEC/MSC, viability
# Test Description: Anticancer human tumor 422866-222-R5-J1-PDC patient-derived pancreatic adenocarcinoma cell line growth inhibition [GQUAD]
# Stated Conditions: compound alone; run of 04/22/2024

[
  {
    "Compound String": "Cc1[nH]c2ccc(F)cc2c1-c1nc2c3cccnc3c3ncccc3c2[nH]1",
    "Target System": "422866-222-R5-J1-PDC spheroids with HUVEC/MSC, viability",
    "IC50": "> 10 µM"
  },
  {
    "Compound String": "CN(C)c1ccc(Nc2c3ccc(NC(=O)CCN4CCCC4)cc3nc3cc(NC(=O)CCN4CCCC4)ccc23)cc1",
    "Target System": "422866-222-R5-J1-PDC spheroids with HUVEC/MSC, viability",
    "IC50": "> 10 µM"
  }
]

----------
# System: 422866-222-R5-J1-PDC spheroids with HUVEC/MSC, viability
# Test Description: Anticancer human tumor 422866-222-R5-J1-PDC cell line growth inhibition [GQUAD];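 further: spheroids exposed to compounds for seven days before reading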;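 on viability, T/C: percent viability relative to DMSO vehicle control taken as 100%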
# Stated Conditions: second compound 0.0316 µM; first compound 3.16 µM; stronger effect = lower value
Entries whose viability, T/C is below 70% take 1 (yes); entries at or above 70% take 0 (no).

[
  {
    "Molecule": "CCCS(=O)(=O)Nc1ccc(F)c(C(=O)c2c[nH]c3ncc(-c4ccc(Cl)cc4)cc23)c1F + Cc1cnc(CNC(=O)c2c(=O)c3ccc(N4CCCN(C)CC4)nc3n3c2sc2ccccc23)cn1",
    "Classification": "0 (no)"
  },
  {
    "Molecule": "CC1COCCN1c1cc(C2(S(C)(=N)=O)CC2)nc(-c2ccnc3[nH]ccc23)n1 (stereo not given) + CN(C)c1ccc(Nc2c3ccc(NC(=O)CCN4CCCC4)cc3nc3cc(NC(=O)CCN4CCCC4)ccc23)cc1",
    "Classification": "1 (yes)"
  },
  {
    "Molecule": "CC(=O)O[C@H]1C(=O)[C@@]2(C)[C@H]([C@H](OC(=O)c3ccccc3)[C@]3(O)C[C@H](OC(=O)[C@H](O)[C@@H](NC(=O)c4ccccc4)c4ccccc4)C(C)=C1C3(C)C)[C@]1(OC(C)=O)CO[C@@H]1C[C@@H]2O + CN(C)c1ccc(Nc2c3ccc(NC(=O)CCN4CCCC4)cc3nc3cc(NC(=O)CCN4CCCC4)ccc23)cc1",
    "Classification": "0 (no)"
  },
  {
    "Molecule": "COc1ccc([C@@H](O)c2cc(-c3ncnc4cc(N5CCOCC5)ccc34)c(F)cc2Cl)nn1 + CN(C)c1ccc(Nc2c3ccc(NC(=O)CCN4CCCC4)cc3nc3cc(NC(=O)CCN4CCCC4)ccc23)cc1",
    "Classification": "1 (yes)"
  },
  {
    "Molecule": "CC1COCCN1c1cc(-c2ccnn2C)c2ccnc(-c3ccn[nH]3)c2n1 (stereo not given) + Cc1[nH]c2ccc(F)cc2c1-c1nc2c3cccnc3c3ncccc3c2[nH]1",
    "Classification": "1 (yes)"
  },
  {
    "Molecule": "CC1COCCN1c1cc(C2(O)CC3CCC(C2)O3)c2cnn(-c3ccn[nH]3)c2n1 (stereo not given) + CN(C)c1ccc(Nc2c3ccc(NC(=O)CCN4CCCC4)cc3nc3cc(NC(=O)CCN4CCCC4)ccc23)cc1",
    "Classification": "0 (no)"
  },
  {
    "Molecule": "C=CCn1c(=O)c2cnc(Nc3ccc(N4CCN(C)CC4)cc3)nc2n1-c1cccc(C(C)(C)O)n1 + CN(C)c1ccc(Nc2c3ccc(NC(=O)CCN4CCCC4)cc3nc3cc(NC(=O)CCN4CCCC4)ccc23)cc1",
    "Classification": "1 (yes)"
  },
  {
    "Molecule": "CC(=O)O[C@H]1C(=O)[C@@]2(C)[C@H]([C@H](OC(=O)c3ccccc3)[C@]3(O)C[C@H](OC(=O)[C@H](O)[C@@H](NC(=O)c4ccccc4)c4ccccc4)C(C)=C1C3(C)C)[C@]1(OC(C)=O)CO[C@@H]1C[C@@H]2O + Cc1cnc(CNC(=O)c2c(=O)c3ccc(N4CCCN(C)CC4)nc3n3c2sc2ccccc23)cn1",
    "Classification": "0 (no)"
  },
  {
    "Molecule": "O=C(c1cc(Cc2n[nH]c(=O)c3ccccc23)ccc1F)N1CCN(C(=O)C2CC2)CC1 + Cc1[nH]c2ccc(F)cc2c1-c1nc2c3cccnc3c3ncccc3c2[nH]1",
    "Classification": "0 (no)"
  },
  {
    "Molecule": "Nc1ccn(C2OC(CO)C(O)C2(F)F)c(=O)n1 (stereo not given) + CN(C)c1ccc(Nc2c3ccc(NC(=O)CCN4CCCC4)cc3nc3cc(NC(=O)CCN4CCCC4)ccc23)cc1",
    "Classification": "1 (yes)"
  },
  {
    "Molecule": "COc1ccc([C@@H](O)c2cc(-c3ncnc4cc(N5CCOCC5)ccc34)c(F)cc2Cl)nn1 + Cc1[nH]c2ccc(F)cc2c1-c1nc2c3cccnc3c3ncccc3c2[nH]1",
    "Classification": "1 (yes)"
  },
  {
    "Molecule": "C=CCn1c(=O)c2cnc(Nc3ccc(N4CCN(C)CC4)cc3)nc2n1-c1cccc(C(C)(C)O)n1 + Cc1cnc(CNC(=O)c2c(=O)c3ccc(N4CCCN(C)CC4)nc3n3c2sc2ccccc23)cn1",
    "Classification": "1 (yes)"
  },
  {
    "Molecule": "O=C(NO)c1cnc(N2CCN(S(=O)(=O)c3ccc4ccccc4c3)CC2)nc1 + Cc1cnc(CNC(=O)c2c(=O)c3ccc(N4CCCN(C)CC4)nc3n3c2sc2ccccc23)cn1",
    "Classification": "1 (yes)"
  },
  {
    "Molecule": "CC(C)n1c(=O)n(C)c2cnc3cc(F)c(-c4ccc(OCCCN5CCCCC5)nc4)cc3c21 + Cc1[nH]c2ccc(F)cc2c1-c1nc2c3cccnc3c3ncccc3c2[nH]1",
    "Classification": "0 (no)"
  },
  {
    "Molecule": "CC(=O)O[C@H]1C(=O)[C@@]2(C)[C@H]([C@H](OC(=O)c3ccccc3)[C@]3(O)C[C@H](OC(=O)[C@H](O)[C@@H](NC(=O)c4ccccc4)c4ccccc4)C(C)=C1C3(C)C)[C@]1(OC(C)=O)CO[C@@H]1C[C@@H]2O + Cc1[nH]c2ccc(F)cc2c1-c1nc2c3cccnc3c3ncccc3c2[nH]1",
    "Classification": "1 (yes)"
  },
  {
    "Molecule": "COc1ncnc(C2CC2)c1-c1ncc2cnn(Cc3ccc(-c4nc(C(F)(F)F)cn4C(C)C)cc3)c2n1 + Cc1[nH]c2ccc(F)cc2c1-c1nc2c3cccnc3c3ncccc3c2[nH]1",
    "Classification": "1 (yes)"
  },
  {
    "Molecule": "COc1cc(C2c3cc4c(cc3C(OC3OC5COC(C)OC5C(O)C3O)C3COC(=O)C23)OCO4)cc(OC)c1O (stereo not given) + CN(C)c1ccc(Nc2c3ccc(NC(=O)CCN4CCCC4)cc3nc3cc(NC(=O)CCN4CCCC4)ccc23)cc1",
    "Classification": "1 (yes)"
  },
  {
    "Molecule": "CC(C)(O)C1CCC(Nc2ccc3ncc(-c4cccc(C(F)(F)F)c4)n3n2)CC1 (stereo not given) + CN(C)c1ccc(Nc2c3ccc(NC(=O)CCN4CCCC4)cc3nc3cc(NC(=O)CCN4CCCC4)ccc23)cc1",
    "Classification": "1 (yes)"
  },
  {
    "Molecule": "Cc1cccc(N(C)C(=O)C2C(O)CCN2c2nc(C)cc(C(F)(F)F)c2C#N)c1 (stereo not given) + Cc1[nH]c2ccc(F)cc2c1-c1nc2c3cccnc3c3ncccc3c2[nH]1",
    "Classification": "0 (no)"
  }
]
